assay: Evaluation of conversion rate to active form in human plasma (Experimental Example 3); assay type: in vitro ADME; details: human, 0 min, 0.2 μmol/L
observed.property: Production rate (%) of Alvocidib

{"columns": ["molecule", "observed.property", "unit.text", "reported.result"],
 "data": [
  ["CN1CC[C@H](c2c(O)cc(O)c3c(=O)cc(-c4ccccc4Cl)oc23)[C@H](OC(=O)[C@@H](N)CO)C1 [Comparative Example 9, reference compound]", "Production rate (%) of Alvocidib", "%", 3],
  ["CCNC(=O)O[C@@H]1CN(C)CC[C@@H]1c1c(O)cc(O)c2c(=O)cc(-c3ccccc3Cl)oc12 [Comparative Example 4, reference compound]", "Production rate (%) of Alvocidib", "%", 2],
  ["CN1CC[C@H](c2c(O)cc(O)c3c(=O)cc(-c4ccccc4Cl)oc23)[C@H](OC(=O)CN)C1 [Comparative Example 8, reference compound]", "Production rate (%) of Alvocidib", "%", 4]
]}

a: CC(C)[C@H](N)C(=O)O[C@@H]1CN(C)CC[C@@H]1c1c(O)cc(O)c2c(=O)cc(-c3ccccc3Cl)oc12 [Comparative Example 10, reference compound]
b: CCOC(=O)O[C@@H]1CN(C)CC[C@@H]1c1c(O)cc(O)c2c(=O)cc(-c3ccccc3Cl)oc12 [Comparative Example 3, reference compound]
c: CCC(=O)O[C@@H]1CN(C)CC[C@@H]1c1c(O)cc(O)c2c(=O)cc(-c3ccccc3Cl)oc12
INPUT: # rank_down: sort by Production rate (%) of Alvocidib, max first Ranked list of labels, please, in the requested order.
OUTPUT: c, b, a

A: CN1CC[C@H](c2c(O)cc(O)c3c(=O)cc(-c4ccccc4Cl)oc23)[C@H](OC(=O)c2ccccc2F)C1
B: C[C@H](N)C(=O)O[C@@H]1CN(C)CC[C@@H]1c1c(O)cc(O)c2c(=O)cc(-c3ccccc3Cl)oc12 [Comparative Example 7, reference compound]
INPUT: Lab log: flag the item ( A or B ) with the smaller Production rate (%) of Alvocidib figure. Mark your selection by writing its label.
OUTPUT: A
(A: 0%, B: 6%)
